- Tested on: MS2 coat protein
- Protocol summary: apparent KD of MS2 coat protein; higher = weaker reporter binding
- Particulars: Eterna round: R107; input ligand: theophylline 2 mM
Entries annotated with measured apparent KD of MS2 coat protein
Reported metric: apparent KD of MS2 coat protein (nM)

INSERT INTO measurements (seq_string, measured_value) VALUES
  ('GACCUUGCCUGAAGGAGCGAGGUAAAUAGGGUUGAGCAUACAUGAGGAUCACCCAUGUGGCCUCAGGUAGGUCGCAGGUAGGACA [Exclusion Arginine B GF30]', 189),
  ('GGACUAACCUGAAGGAGCGACGCGCAGAAACUGCAAUUUCCUCCACACGAGGAUCACCCGUGUCAGGUAGGUCGCAGGUUAGUCG [ArgBX 29]', 15.4),
  ('GGCACCAGGAGAAGGAGCGUGAAGACAUGAGGAUCACCCAUGUAGAGGCGCCGACGGCGUUCGCAGGUAGGUCGCUCCUGGUGCC [#1 Same State - Arginine B Attempt #16 (HarryS)]', 23.5),
  ('AGAAUAUAGUCGGCCGCCACUCUACAUACAUGAGGAUCACCCAUGUUUACAUAGUGGAAACACAUGAGGACCGGGACAUAGGCAU [#16 Same State - Tryptophan B]', 11);

====

- Test system: MS2 coat protein
- Protocol summary: apparent KD of MS2 coat protein; designed switch direction (-1 OFF switch, 1 ON switch): -1; higher = weaker reporter binding
- Particulars: input ligand: none
Definition: the class of an entry is the range in group 1 (below 0.02 µM), group 2 (0.02 µM to below 0.03 µM), group 3 (0.03 µM or more) that contains its apparent KD of MS2 coat protein.

INSERT INTO assay_data (seq_string, class_label) VALUES
  ('AAUGCCAGAGGAUAUACAUGAGGAUCACCCAUGUUAAAUGAUCCUGUGCUAGAUGCACGUAGAAGGCUGUAAAA [EX3 A.8] (Eterna round: R97, puzzle: Exclusion 3)', 'group 1'),
  ('AUGGGUACUUUCGGAGCGACAUGAGGAUCACCCAUGUAUGUUGAGGAUAUCCACUGCUAAGGACGGGAGAAGGCAGUGUACUGU [Ex NG3 #83] (Eterna round: R96, puzzle: Exclusion NG 3)', 'group 2'),
  ('UAUGGUUAAGUCAGGAUAUACAAACAGAAAUCUGAGUAGAAGGGACAUGAGGAUCACCCAUGUAUGGUAGUGUU [Ex4 #56] (Eterna round: R97, puzzle: Brourd''s mod of Exclusion 4)', 'group 3'),
  ('UAAUAUAGAGGAUAUACAUGAGGAUCACCCAUGUGAGUCCAUUAUGGGAUGAGAUCGGGUAGAAGGCUACGAAU [Eternabot (L2) Solution 28] (Eterna round: R97, puzzle: Exclusion 3)', 'group 3'),
  ('GAUGUGAGACAGGAUAUCCACGGGAUAGUCUGAGGAGAAGGGUCUACAUGAGGAUCACCCAUGUGCGUCCCUCA [EX6 B.8] (Eterna round: R97, puzzle: Exclusion 6)', 'group 1'),
  ('UCUCACUCAGGAUAUCUUCCGCAUGACAUGAGGAUCACCCAUGUGUGCAUGCCCUUUGGUAGAGAAGGGAGUGAGA [eternacac ex5r4 #5] (Eterna round: R97, puzzle: Exclusion 5)', 'group 2'),
  ('UAAAAGACAGGAUAUACUAACAACGACUUGAGGAUCACCCAAGUGGUAAGAGUCGAUCAUGUAGAAGGGUUAAAAC [Atsoce] (Eterna round: R97, puzzle: Exclusion 5)', 'group 2'),
  ('ACAUGAGGAUCACCCAUGUAAACAUAAUGGCUGAUGUAGAGUCAGGAUAUGUGUGGCUAACAAUCGCAGAAGGGACAAGACUGG [Deportation 31 - Jieux - Exclusion NG 3] (Eterna round: R96, puzzle: Exclusion NG 3)', 'group 3'),
  ('AGCGAAUAAGUAGGAUAUGAGAAUAGAUAGAGCUCAGAAGGACUACAUGAGGAUCACCCAUGUAAAGUCUUGAGGCUGCGUGGU [Prohibition 14 - Jieux - Exclusion NG 1] (Eterna round: R96, puzzle: Exclusion NG 1)', 'group 1');

====

- Test system: MS2 coat protein
- Protocol summary: apparent KD of MS2 coat protein; designed switch direction (-1 OFF switch, 1 ON switch): -1; higher = weaker reporter binding
- Particulars: input ligand: microRNA oligo, concentration not stated
Entries annotated with measured apparent KD of MS2 coat protein
Reported metric: apparent KD of MS2 coat protein

INSERT INTO measurements (seq_string, measured_value) VALUES
  ('UAACAUGUCUGAGGAUAUCUGCACGAUUAGUGCAGAGAAGGCAGAACAUGAGGAUCACCCAUGUAGAUCAUUAAUUAAUUAAUU [ENG1/7-B1] (Eterna round: R96, puzzle: Exclusion NG 1)', '288 nM'),
  ('CCCAGUUAGGAAGGAUAUUGUACAUGAGGAUCACCCAUGUAAUAAAUGAGGAUCUCGGAUGUAUACAAGAAGGUCCGGAUAGGC [Ostracism 10 - Jieux - Exclusion NG 2] (Eterna round: R96, puzzle: Exclusion NG 2)', '58.5 nM'),
  ('UUAAUUAAUAAUUAAGAUCAUUACAUGAGGAUCACCCAUGUCGAGGAUAUCAGCUCGAUUAGAGCUGAGAAGGCGACAAAUUAU [ExNG3/13-B1] (Eterna round: R96, puzzle: Exclusion NG 3)', '644 nM'),
  ('AACCUGAGGCAAAGCUUUAGGUGUACAUGAGGAUCACCCAUGUAGGAUAUGGUAGGCAAAGCUUACCAGAAGGACAUUUAGGUU [Mat - Exclusion NG 3 - Mod of JL - D44] (Eterna round: R96, puzzle: Exclusion NG 3)', '36.5 nM'),
  ('UUGUUAUAUGUAGGAUAUGCGUGUUAUUAUUAUGCAGAAGGACAUGAGGAUCACCCAUGUGUAUUAUUAUUAUAUAUUAUAUAU [Title] (Eterna round: R96, puzzle: Exclusion NG 1)', '15.4 nM'),
  ('CUAUGUGCGAGAGGAUAUCGUGUACAAAGUACACGAGAAGGCUUCACAUGAGGAUCACCCAUGUACCGAGGUGAAACACCUUGA [Omei Exc(NG)1 Bv6] (Eterna round: R96, puzzle: Exclusion NG 1)', '261 nM'),
  ('GGUACUCAAAGAGUACCAAUACGAACAUGAGGAUCACCCAUGUAGGAUAUGCUACUCAAAGAGUAGCAGAAGGACAUGUGCCUU [Far Half Aptamer v5] (Eterna round: R96, puzzle: Exclusion NG 3)', '25.3 nM'),
  ('UAAGUUUACCGAGGAUAUGGUUUUUCCUUUUUACCAGAAGGCGGACUCAACAUGAGGAUCACCCAUGUAUAAAGGGUAUUUGGU [JR_ExcNG1_Sub045] (Eterna round: R96, puzzle: Exclusion NG 1)', '49.6 nM'),
  ('UUUUUAUAUGAAGGAUAUACUUAACAUGAGGAUCACCCAUGUGGUGUUGUGAGUGAGUGAGUUUAGUAGAAGGUCAAUGAUUUG [JMF''s solution 63] (Eterna round: R96, puzzle: Exclusion NG 2)', '237 nM');

====

- Test system: K4 kissing-loop RNA reporter;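 also: bound reporter read as fluorescence of individual clusters on recovered sequencing chips by microscopy, with normalized cluster intensities fitted with a binding model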
- Protocol summary: apparent KD of K4 kissing-loop reporter; higher = weaker reporter binding
- Particulars: Eterna round: R107; input ligand: arginine 13.2 mM
Entries annotated with measured apparent KD of K4 kissing-loop reporter
Reported metric: apparent KD of K4 kissing-loop reporter (µM)

INSERT INTO measurements (seq_string, reported_metric, measured_value) VALUES
  ('AGUAGAGCAUCAGAUACCAGACAGAACUGAUGGUAAGGAGUGAUGUUCCUUAAUCAGCUUGUCCCUUGGCAGCUGAUAAUAGUCA [#13 K4 Theophylline B Same State]', 'apparent KD of K4 kissing-loop reporter', 0.437),
  ('UAGCGGUAGAGGCCACCGCUAUUCUGAGAAGGAGCGCAGAUGACUGCAGGUAGGUCGCUUAGAGCUUGCAGUGAUGUUGCAAGUU [Tebete]', 'apparent KD of K4 kissing-loop reporter', 0.175),
  ('GUAAUCUUGCUCGAGUGAUGUUCGAGCGAAGGAGCGCGAGAAAUCGCAGGUAGGUCGCGCUCGAAAUAUGAGCGAACAAUUAUUA [Arg A Ex t2b]', 'apparent KD of K4 kissing-loop reporter', 0.197),
  ('AGACUACUGAUAGGAUAUAACAUCCUAGUCGUAUACCGAAAGGUAUACGAAACCCUUCUAGUGAUGUUAGAAGGGUCGGUAGUCA [Omei KL FMN B Exc B v9]', 'apparent KD of K4 kissing-loop reporter', 0.0671),
  ('UCCUGCAAUCGACCACGAAAGUGGAUGGAUACCAGAGUCGAAAGACUCCCUUGGCAGCCAGUGAUGUUGGAAGCAGGUAAAUAAA [#SwitchBubble 17 #K4Late]', 'apparent KD of K4 kissing-loop reporter', 0.359),
  ('AAUUAAUACAGAAGGAGCGUGUUUUUUAAUUUAUUUUCAUGAUCGAGUGAUGUUCGAUAUACACAGGUAGGUCGCUGUAUAUUUA [JR_SSArginiB_Sub008]', 'apparent KD of K4 kissing-loop reporter', 0.142);
